method description: DUSP6 inhibitors restoring Erk phosphorylation by chemical complementation, primary imaging in DUSP6-transfected HeLa (AID 609)
condition description: HeLa MKP-3 transfected, phospho-Erk imaging KS statistic; measured here: nuclear c-Myc green intensity z-score; at 10 µM; cells stimulated with TPA for 15 min
endpoint label: z-score
Answer as a number with no unit attached.

I am curious: what z-score value has been reported for `O=C(c1ccc(F)cc1)N1CCC(N2CCCCCC2)CC1` ? 0.516

I am curious: what z-score value has been reported for `COCc1cc(=O)[nH]c(Nc2nc3ccccc3o2)n1` ? -1.45

I am curious: what z-score value has been reported for `Cn1c(=O)cc(NCc2ccccc2)[nH]c1=O` ? -0.42

I am curious: what z-score value has been reported for COc1ccc(C2C(C#N)=C(N)Oc3n[nH]c(C)c32)cc1CSc1ccccn1 (stereo not given) ? 1.17

I am curious: what z-score value has been reported for `c1coc(-c2nnc3sc(C4CCCCC4)nn23)c1` ? -0.759

* * *

method description: DUSP6 inhibitors restoring Erk phosphorylation by chemical complementation, primary imaging in DUSP6-transfected HeLa (AID 609)
condition description: HeLa MKP-3 transfected, phospho-Erk imaging KS statistic; measured here: nuclear c-Myc green intensity z-score; at 10 µM; cells stimulated with TPA for 15 min
Respond with Yes for z-score values of -0.2 and above, No for values below.

Hi, just wondering whether `CCn1c(SCC(=O)O)nc2sc3c(c2c1=O)CCC3` shows z-score of -0.2 or higher. No

Hi, just wondering whether COc1cccc(N2CCN(c3ncnc4c3[nH]c3ccc(F)cc34)CC2C)c1 (configuration not stated) shows z-score of -0.2 or higher. Yes

Hi, just wondering whether `COCCN(C(=O)Nc1ccccc1)c1ccccc1C` shows z-score of -0.2 or higher. Yes

Hi, just wondering whether `CC(=O)OCC(=O)[C@@]12OC(C)(C)O[C@@H]1C[C@H]1[C@@H]3C[C@H](F)C4=CC(=O)C=C[C@]4(C)[C@@]3(F)[C@@H](O)C[C@@]12C` shows z-score of -0.2 or higher. No

Hi, just wondering whether `CC1(C)Cc2c(C#N)c(SCC(=O)c3ccccc3)nc(N3CCCC3)c2CO1` shows z-score of -0.2 or higher. No

Hi, just wondering whether CC1(C)NC(=O)N(CC(O)COc2ccccc2C(=O)Nc2ccccc2)C1=O (configuration not stated) shows z-score of -0.2 or higher. Yes

Hi, just wondering whether `COC(=O)C(NC(C)=O)(Nc1ccc(Br)cc1)C(=O)OC` shows z-score of -0.2 or higher. Yes

* * *

method description: DUSP6 inhibitors restoring Erk phosphorylation by chemical complementation, primary imaging in DUSP6-transfected HeLa (AID 609)
condition description: HeLa MKP-3 transfected, phospho-Erk imaging KS statistic; measured here: nuclear c-Myc green intensity z-score; at 10 µM; cells stimulated with TPA for 15 min
Respond with 1 (yes) for z-score values of -0.7 and above, 0 (no) for values below.

Hi, just wondering whether CN1C2C=C3C(C#N)=C(N)C(C#N)(C#N)[C@@H](c4cccs4)C3C1CC2 (stereo not given in full) shows z-score of -0.7 or higher. 0 (no)

Hi, just wondering whether `CC1CCN(c2oc(-c3ccccc3Cl)nc2C#N)CC1` shows z-score of -0.7 or higher. 1 (yes)

Hi, just wondering whether `CCOC(=O)N1CCN(/C=C(\C#N)c2nc3ccccc3s2)CC1` shows z-score of -0.7 or higher. 1 (yes)

Hi, just wondering whether `CCOC(=O)N1CC=C2C(C#N)=C(N)C(C#N)(C#N)[C@H](c3cccs3)[C@H]2C1` shows z-score of -0.7 or higher. 1 (yes)
